All figures here come from patent US11236129B2.

Molecular target: IL-17RA/IL17RC dimerization induced by IL-17A (Homo sapiens)
Sequence (Q16552 24-155): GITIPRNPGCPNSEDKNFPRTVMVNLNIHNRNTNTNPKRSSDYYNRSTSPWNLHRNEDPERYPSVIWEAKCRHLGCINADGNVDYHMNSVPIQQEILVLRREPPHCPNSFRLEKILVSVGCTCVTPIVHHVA
Assay: IL-17RA/IL17RC dimerization assay in response to IL-17A (PathHunter Cytokine Receptor Assay)
Format: cell-based
Conditions: IL-17A at EC80; read-out: IC50 in IL-17RA/IL7RC dimerization assay
pIC50: −log10 of the molar value. Residues, ends and D or L forms follow the SMILES beside them.
Listing: pIC50 of selected compounds
parameter: pIC50

[[record]]
compound = "CC[C@H](C)[C@H](NC(C)=O)C(=O)N[C@@H](Cc1c[nH]cn1)C(=O)N[C@H](C(=O)N[C@H](C(=O)NCC(=O)N1CCC[C@H]1C(=O)N[C@@H](C)C(=O)N[C@@H](CC(=O)O)C(=O)N[C@@H](CC(C)C)C(=O)N[C@@H](Cc1c[nH]c2ccccc12)C(=O)N[C@@H](CC(=O)O)C(=O)N[C@@H](Cc1c[nH]c2ccccc12)C(=O)N[C@H](C(=O)N[C@@H](CC(N)=O)C(=O)N[C@@H](CCCCN)C(N)=O)[C@@H](C)CC)[C@@H](C)O)C(C)C [SEQ ID NO: 180] (Ac-IHVTGPADLWDWINK-NH2)"
target = "IL-17RA/IL17RC dimerization induced by IL-17A (Homo sapiens)"
obsvalue = "> 5.00"

[[record]]
compound = "CC[C@H](C)[C@H](NC(C)=O)C(=O)N[C@@H](Cc1c[nH]cn1)C(=O)N[C@H](C(=O)N[C@H](C(=O)N[C@H](C(=O)N1CCC[C@H]1C(=O)N[C@@H](C)C(=O)N[C@@H](CC(=O)O)C(=O)N[C@@H](CC(C)C)C(=O)N[C@@H](Cc1c[nH]c2ccccc12)C(=O)N[C@@H](CC(=O)O)C(=O)N[C@@H](Cc1c[nH]c2ccccc12)C(=O)N[C@@H](CC(C)C)C(=O)N[C@@H](CC(N)=O)C(=O)N[C@@H](CCCCN)C(N)=O)[C@@H](C)CC)[C@@H](C)O)C(C)C [SEQ ID NO: 216] (Ac-IHVTIPADLWDWLNK-NH2)"
target = "IL-17RA/IL17RC dimerization induced by IL-17A (Homo sapiens)"
obsvalue = "> 5.00"

[[record]]
compound = "CC[C@H](C)[C@H](NC(C)=O)C(=O)N[C@@H](Cc1c[nH]cn1)C(=O)N[C@H](C(=O)N[C@H](C(=O)N[C@H](C(=O)N1CCC[C@H]1C(=O)N[C@@H](C)C(=O)N[C@@H](CC(=O)O)C(=O)N[C@@H](CC(C)C)C(=O)N[C@@H](Cc1c[nH]c2ccccc12)C(=O)N[C@@H](CC(=O)O)C(=O)N[C@@H](Cc1c[nH]c2ccccc12)C(=O)N[C@@H](C)C(=O)N[C@@H](CC(N)=O)C(=O)N[C@@H](CCCCN)C(N)=O)[C@@H](C)CC)[C@@H](C)O)C(C)C [SEQ ID NO: 214] (Ac-IHVTIPADLWDWANK-NH2)"
target = "IL-17RA/IL17RC dimerization induced by IL-17A (Homo sapiens)"
obsvalue = "> 5.00"

[[record]]
compound = "CC[C@H](C)[C@H](NC(C)=O)C(=O)N[C@@H](CCC(N)=O)C(=O)N[C@H](C(=O)N[C@H](C(=O)N[C@H](C(=O)N1CCC[C@H]1C(=O)N[C@@H](C)C(=O)N[C@@H](CC(=O)O)C(=O)N[C@@H](CC(C)C)C(=O)N[C@@H](Cc1c[nH]c2ccccc12)C(=O)N[C@@H](CC(=O)O)C(=O)N[C@@H](Cc1c[nH]c2ccccc12)C(=O)N[C@H](C(=O)N[C@@H](CC(N)=O)C(=O)N[C@@H](CCCCN)C(N)=O)[C@@H](C)CC)[C@@H](C)CC)[C@@H](C)O)C(C)C [SEQ ID NO: 165] (Ac-IQVTIPADLWDWINK-NH2)"
target = "IL-17RA/IL17RC dimerization induced by IL-17A (Homo sapiens)"
obsvalue = "> 5.00"

[[record]]
compound = "CC[C@H](C)[C@H](NC(C)=O)C(=O)N[C@@H](Cc1c[nH]cn1)C(=O)N[C@H](C(=O)N[C@H](C(=O)N[C@H](C(=O)N1CCC[C@H]1C(=O)N[C@@H](C)C(=O)N[C@@H](CCC(N)=O)C(=O)N[C@@H](CC(C)C)C(=O)N[C@@H](Cc1c[nH]c2ccccc12)C(=O)N[C@@H](CC(=O)O)C(=O)N[C@@H](Cc1c[nH]c2ccccc12)C(=O)N[C@H](C(=O)N[C@@H](CC(N)=O)C(=O)N[C@@H](CCCCN)C(N)=O)[C@@H](C)CC)[C@@H](C)CC)[C@@H](C)O)C(C)C [SEQ ID NO: 199] (Ac-IHVTIPAQLWDWINK-NH2)"
target = "IL-17RA/IL17RC dimerization induced by IL-17A (Homo sapiens)"
obsvalue = "> 5.00"

[[record]]
compound = "CC(=O)N[C@H](C(=O)N[C@@H](Cc1c[nH]cn1)C(=O)N[C@@H](Cc1ccccc1)C(=O)N[C@H](C(=O)N[C@@H](Cc1ccccc1)C(=O)N1CCC[C@H]1C(=O)N[C@@H](CCC(N)=O)C(=O)N[C@@H](CC(=O)O)C(=O)N[C@@H](CC(C)C)C(=O)N[C@@H](Cc1c[nH]c2ccccc12)C(=O)N[C@@H](CCC(=O)O)C(=O)N[C@@H](Cc1c[nH]c2ccccc12)C(=O)N[C@@H](Cc1ccccc1)C(=O)N[C@@H](CCCNC(=N)N)C(=O)N[C@@H](CCCNC(=N)N)C(N)=O)[C@@H](C)O)C(C)C [SEQ ID NO: 129] (Ac-VHFTFPQDLWEWFRR-NH2)"
target = "IL-17RA/IL17RC dimerization induced by IL-17A (Homo sapiens)"
obsvalue = "> 6.30"

[[record]]
compound = "CC(=O)N[C@H](C(=O)N[C@@H](Cc1c[nH]cn1)C(=O)N[C@@H](Cc1ccccc1)C(=O)N[C@H](C(=O)N[C@@H](Cc1ccccc1)C(=O)N1CCC[C@H]1C(=O)N[C@@H](CCC(N)=O)C(=O)N[C@@H](CC(=O)O)C(=O)N[C@@H](CC(C)C)C(=O)N[C@@H](Cc1c[nH]c2ccccc12)C(=O)N[C@@H](CCC(=O)O)C(=O)N[C@@H](Cc1ccccc1)C(=O)N[C@H](C(=O)N[C@@H](CCCNC(=N)N)C(=O)N[C@@H](CCCNC(=N)N)C(N)=O)C(C)C)[C@@H](C)O)C(C)C [SEQ ID NO: 128] (Ac-VHFTFPQDLWEFVRR-NH2)"
target = "IL-17RA/IL17RC dimerization induced by IL-17A (Homo sapiens)"
obsvalue = "> 6.30"

[[record]]
compound = "CC[C@H](C)[C@H](NC(C)=O)C(=O)N[C@@H](Cc1c[nH]cn1)C(=O)N[C@H](C(=O)N[C@@H](CC(N)=O)C(=O)N[C@H](C(=O)N1CCC[C@H]1C(=O)N[C@@H](C)C(=O)N[C@@H](CC(=O)O)C(=O)N[C@@H](CC(C)C)C(=O)N[C@@H](Cc1c[nH]c2ccccc12)C(=O)N[C@@H](CC(=O)O)C(=O)N[C@@H](Cc1c[nH]c2ccccc12)C(=O)N[C@H](C(=O)N[C@@H](CC(N)=O)C(=O)N[C@@H](CCCCN)C(N)=O)[C@@H](C)CC)[C@@H](C)CC)C(C)C [SEQ ID NO: 177] (Ac-IHVNIPADLWDWINK-NH2)"
target = "IL-17RA/IL17RC dimerization induced by IL-17A (Homo sapiens)"
obsvalue = "> 5.00"

